Read-out: Pselectin, SELP (gene 6403)
Test: BSK_4H_Pselectin: BioMAP Diversity Plus: 4H Assay for Pselectin Biomarker Activity (AID 2283026)
Conditions: primary human endothelial cells (HUVEC); actives raise or lower the signal
Calls of active or inactive are those of the source. The calls were made as follows: active = hit-call score of the fitted dose curve at least 0.9, where 1 is the maximum; inactive = score below 0.9.
recorded.metric: AC50

CC(=O)CCC=C(C)CCC=C(C)C :: inactive
C=C(C)C(=O)OCCC(F)(F)C(F)(F)C(F)(F)C(F)(F)C(F)(F)C(F)(F)C(F)(F)C(F)(F)F :: inactive
CC(=O)c1ccc(C)cc1 :: inactive
O=S(=O)(O)C(F)(F)C(F)(F)OC(F)(F)C(F)(F)F :: inactive
CCOC(=O)C=Cc1ccccc1 :: inactive

get_value(item= C=CC(=O)OCC(CO)(COC(=O)C=C)COC(=O)C=C , readout=AC50) returns 341 nM (active)

* * *

Biological target: Estrogen receptor (Homo sapiens) (UniProt P03372)
Sequence (P03372 whole entry, looked up, the tested form may be a part): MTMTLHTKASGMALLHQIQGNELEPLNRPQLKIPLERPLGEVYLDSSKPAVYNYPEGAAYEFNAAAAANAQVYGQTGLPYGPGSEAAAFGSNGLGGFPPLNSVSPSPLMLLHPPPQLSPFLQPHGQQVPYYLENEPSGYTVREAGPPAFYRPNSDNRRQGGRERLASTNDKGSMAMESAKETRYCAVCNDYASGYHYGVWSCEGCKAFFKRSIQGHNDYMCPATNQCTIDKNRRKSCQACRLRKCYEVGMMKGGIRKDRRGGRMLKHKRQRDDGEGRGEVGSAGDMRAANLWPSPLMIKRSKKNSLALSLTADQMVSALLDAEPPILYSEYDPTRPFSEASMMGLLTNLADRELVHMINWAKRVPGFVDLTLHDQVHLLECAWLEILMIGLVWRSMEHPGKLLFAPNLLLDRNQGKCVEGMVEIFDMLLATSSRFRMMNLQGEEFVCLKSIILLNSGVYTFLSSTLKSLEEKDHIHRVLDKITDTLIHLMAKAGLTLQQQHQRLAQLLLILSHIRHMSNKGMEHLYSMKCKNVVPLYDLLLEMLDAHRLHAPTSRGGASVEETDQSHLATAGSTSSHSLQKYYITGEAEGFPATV
Assay: OT_ER_ERaERa_0480: Odyssey Thera (OT) 8-hour HEK293T Protein-Complementation Assay for Estrogen Receptor-alpha/-alpha Homodimer (AID 2283351);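 also: rise in fluorescence from reassembled reporter fragments on ERα LBD homodimer in nucleus or whole cell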
Results filed as inconclusive are left out. Calls of active or inactive are those of the source. The calls were made as follows: active = hit-call score of the fitted dose curve at least 0.9, where 1 is the maximum; inconclusive = response in the unintended direction; inactive = score below 0.9.
Classes to choose from: active, inactive

Examples with answers:
C1CCCNCC1 :: inactive
CC12CCC(C1)C(C)(C)C2O (centres undefined) :: inactive
CCCCCCCCCCCCOCCOS(=O)(=O)O :: inactive

Task: For CC(CCO)CC(C)(C)C (centres undefined) , which call appears in the assay record?
Result: inactive

Task: For CC(C)N(c1ccccc1)C(C)C , which call appears in the assay record?
Result: inactive

Task: For CC(=O)C1=C(C)[C@@H]2C[C@@]3(C1)[C@H](C)CC[C@H]3C2(C)C , which call appears in the assay record?
Result: active

Task: For C=CC(C)CCCC(C)(C)O (centres undefined) , which call appears in the assay record?
Result: inactive

Task: For NC(N)=S , which call appears in the assay record?
Result: inactive

* * *

Assay: TOX21_p53_BLA_p5_viability: Viability Assessment in the Tox21 HCT-116 p53 Agonism Beta-lactamase Assay, Phase 5 (AID 2283600)
Records with an inconclusive call do not appear. Calls of active or inactive are those of the source. How the source made its calls: active means hit-call score of the fitted dose curve at least 0.9, where 1 is the maximum; inconclusive means response in the unintended direction; inactive means score below 0.9.
Classes to choose from: TRUE = active, FALSE = inactive

C=C/C(C)=C/C/C=C(\C)CCC=C(C)C :: FALSE
CC(=O)c1ccc(O)cc1 :: FALSE
CCO[Si](CC)(OCC)OCC :: FALSE
CC(CCO)CC(C)(C)C (configuration not stated) :: FALSE
CCCCCCC(O)CCOC(C)=O (configuration not stated) :: FALSE
Nc1cc([N+](=O)[O-])ccc1C(=O)O :: FALSE

Task: For CCCCOCCOCCO , which call appears in the assay record?
Result: FALSE

Task: For N=C1N=C(N)c2ccccc21 , which call appears in the assay record?
Result: FALSE

Task: For CC(=O)C1=C(C)[C@@H]2C[C@@]3(C1)[C@H](C)CC[C@H]3C2(C)C , which call appears in the assay record?
Result: FALSE

Task: For CN(C)CCCNCCCN(C)C , which call appears in the assay record?
Result: FALSE

Task: For CCCCCCCCCCCCOCCOS(=O)(=O)O , which call appears in the assay record?
Result: FALSE

Task: For CC(C)N1C(=O)c2ccccc2C1=O , which call appears in the assay record?
Result: FALSE

Task: For OCCCO , which call appears in the assay record?
Result: FALSE

Task: For CCOC(=O)CCCCCCCCC(=O)OCC , which call appears in the assay record?
Result: FALSE

Task: For CC(CO)c1ccccc1 (configuration not stated) , which call appears in the assay record?
Result: FALSE

Task: For CC(=O)CCC=C(C)CCC=C(C)C , which call appears in the assay record?
Result: FALSE

* * *

Target: Luciferin 4-monooxygenase (Photinus pyralis) (UniProt P08659)
Sequence (P08659 whole entry, looked up): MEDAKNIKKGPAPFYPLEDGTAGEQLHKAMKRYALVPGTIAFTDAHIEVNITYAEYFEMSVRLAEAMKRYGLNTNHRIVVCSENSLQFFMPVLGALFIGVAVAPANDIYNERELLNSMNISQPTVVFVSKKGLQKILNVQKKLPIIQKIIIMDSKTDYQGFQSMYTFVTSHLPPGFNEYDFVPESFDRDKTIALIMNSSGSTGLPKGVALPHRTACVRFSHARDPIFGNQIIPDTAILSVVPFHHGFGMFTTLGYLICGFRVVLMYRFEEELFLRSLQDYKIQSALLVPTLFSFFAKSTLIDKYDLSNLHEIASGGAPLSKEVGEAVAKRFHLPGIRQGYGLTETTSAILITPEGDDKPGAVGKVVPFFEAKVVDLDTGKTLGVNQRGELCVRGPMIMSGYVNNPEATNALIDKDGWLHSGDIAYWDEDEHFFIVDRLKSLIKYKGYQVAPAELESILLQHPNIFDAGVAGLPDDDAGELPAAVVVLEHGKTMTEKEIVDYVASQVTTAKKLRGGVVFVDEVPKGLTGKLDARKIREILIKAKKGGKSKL
Experiment: CCTE_Simmons_QuantiLum_inhib_2: CCTE's Firefly Luciferase Inhibition Assay, Simmons Lab (AID 2283767)
Records with an inconclusive call do not appear. Active and inactive are the calls of the source. The calls were made as follows: active = hit-call score of the fitted dose curve at least 0.9, where 1 is the maximum; inconclusive = response in the unintended direction; inactive = score below 0.9.
Classes to choose from: Yes (active), No (inactive)

O=C(c1ccc(OCCN2CCCCC2)cc1)c1c(-c2ccc(O)cc2)sc2cc(O)ccc12 :: No

Task: For O=c1cc[nH]cc1 , which call appears in the assay record?
Result: No

Task: For COc1ccccc1O , which call appears in the assay record?
Result: No

Task: For CN(C)C(=O)Nc1ccccc1 , which call appears in the assay record?
Result: No

Task: For O=c1cc(-c2ccc(O)cc2)oc2cc(O)cc(O)c12 , which call appears in the assay record?
Result: Yes

Task: For CC(=O)Nc1cc(S(=O)(=O)O)cc2cc(S(=O)(=O)O)c(N=Nc3ccccc3)c(O)c12 , which call appears in the assay record?
Result: Yes

Task: For CCCCC/C=C\C=C\C(=O)OCC , which call appears in the assay record?
Result: No

Task: For O=C(O)CS , which call appears in the assay record?
Result: No

Task: For CCCc1ccc(N)cc1 , which call appears in the assay record?
Result: No

* * *

Read-out: Cytochrome P450 3A4 (Homo sapiens)
Assay: LTEA_HepaRG_CYP3A4: Life Technologies and Expression Analysis (LTEA) Assay for CYP3A4 using HepaRG (AID 2283487)
Settings: mRNA level, 48 h; actives raise or lower the signal
Activity calls are given as the source filed them. The calls were made as follows: active = hit-call score of the fitted dose curve at least 0.9, where 1 is the maximum; inactive = score below 0.9.
Classes to choose from: active, inactive

Task: For C=C(C)C(N)=O , which call appears in the assay record?
Result: inactive

Task: For CC/C(=C(\c1ccccc1)c1ccc(OCCN(C)C)cc1)c1ccccc1 , which call appears in the assay record?
Result: inactive

Task: For C[C@]12CC[C@@H]3c4ccc(O)cc4CC[C@H]3[C@@H]1CC[C@@H]2O , which call appears in the assay record?
Result: active

Task: For CCCCOCCOCCO , which call appears in the assay record?
Result: inactive

* * *

Molecular target: Nucleoli Translocation, AR (gene 367)
Assay: UPITT_HCI_U2OS_AR_TIF2_Nucleoli_Antagonist: University of Pittsburgh U2OS Androgen Receptor-Transcriptional Intermediary Factor 2 (AR-TIF2) Antagonism High Content Imaging Assay for Nucleoli Translocation (AID 2283997)
Inconclusive results are not listed. Active and inactive are the calls of the source. Rule for the calls: active = hit-call score of the fitted dose curve at least 0.9, where 1 is the maximum; inconclusive = response in the unintended direction; inactive = score below 0.9.
Classes to choose from: active, inactive

Examples with answers:
CCCCCCOc1ccc(O)cc1 :: active
CC(CCO)CC(C)(C)C (centres undefined) :: inactive
OC[C@H]1O[C@@H](O[C@H]2[C@H](O)[C@@H](O)[C@H](O)O[C@@H]2CO)[C@H](O)[C@@H](O)[C@H]1O :: inactive
c1ccc2c(c1)-c1ccc3ccc4cccc5cc-2c1c3c45 :: active
COC(=O)c1cccc(C(=O)OC)c1 :: inactive
CCOc1ccc(NC(C)=O)cc1 :: inactive

Task: For CCC(C)(C)C1CCC(=O)CC1 , which call appears in the assay record?
Result: inactive

Task: For CC(C)(C)c1cccc(O)c1 , which call appears in the assay record?
Result: inactive

Task: For CC(=O)N(C)C , which call appears in the assay record?
Result: inactive

* * *

Assay: ATG_CRE_CIS: Attagene CIS-FACTORIAL HepG2 Assay for human cAMP Responsive Element (CRE) binding protein 3 (AID 2282926)
Conditions: HepG2 CRE cis-reporter, Attagene multiplexed mRNA; actives raise or lower the signal
The source made the active and inactive calls. Rule for the calls: active = hit-call score of the fitted dose curve at least 0.9, where 1 is the maximum; inactive = score below 0.9.
Classes to choose from: y for active, n for inactive

CC/C=C\CCOC(=O)C(C)C :: n

Task: For CC(=O)c1ccc(C)cc1 , which call appears in the assay record?
Result: n

Task: For CC(=O)c1ccc(O)cc1 , which call appears in the assay record?
Result: n

Task: For CCCCCC(=O)O[C@]1(C(C)=O)CC[C@H]2[C@@H]3CCC4=CC(=O)CC[C@]4(C)[C@H]3CC[C@@]21C , which call appears in the assay record?
Result: y

Task: For CCOc1ccc(NC(C)=O)cc1 , which call appears in the assay record?
Result: n

Task: For Cc1ccc(C(C)(C)O)cc1 , which call appears in the assay record?
Result: n

Task: For CC1=CCC(C(C)C)=CC1 , which call appears in the assay record?
Result: n

* * *

Test: ATG_M_61_CIS: Attagene CIS-FACTORIAL HepG2 Assay for M61 Transcription Factor (Internal Marker) (AID 2282937)
Details: HepG2 Attagene CIS-FACTORIAL M61 internal marker reporter; actives raise or lower the signal
The source made the active and inactive calls. How the source made its calls: active means hit-call score of the fitted dose curve at least 0.9, where 1 is the maximum; inactive means score below 0.9.
Classes to choose from: active, inactive

Examples with answers:
CCCCCCC(C)O (configuration not stated) :: inactive
CC(=O)C1=C(C)[C@@H]2C[C@@]3(C1)[C@H](C)CC[C@H]3C2(C)C :: active
COc1ccc(C(C)=O)cc1 :: inactive
C=CC(=O)OCCCCCC :: inactive
CNC(=C[N+](=O)[O-])NCCSCc1ccc(CN(C)C)o1 :: inactive
CCC(C)(CCCC(C)C)OC(C)=O (configuration not stated) :: inactive

Moving on to another compound below.
Task: For C=C1CC/C=C(\C)CC[C@@H]2[C@@H]1CC2(C)C , which call appears in the assay record?
Result: inactive
